B1: HDV Ribozyme (parent)
chain: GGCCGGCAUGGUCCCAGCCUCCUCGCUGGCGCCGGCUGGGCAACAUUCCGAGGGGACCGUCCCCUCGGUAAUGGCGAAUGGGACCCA

variants of: B1; test: self-cleavage, relative activity (ratio to wild type); higher = more cleavage; co-transcriptional
Outcome label depends on self-cleavage relative to 0.2: at/above gives MET, below gives NOT MET.

// known answers, use as guide
| variant.code | answer.label |
| --- | --- |
| G5U A51G | MET |
| A78C C85A | MET |
| C24G A70C | NOT MET |
| C61A U79A | MET |
| C66G A78C | NOT MET |
| U12C G55A | MET |
| G53A G54C | MET |
| G55A A83U | MET |

Is reported self-cleavage greater than or equal to 0.2 here: G6C C15U
NOT MET

Answer whether self-cleavage of U12G C19U is greater than or equal to 0.2.
NOT MET

Determine whether this variant has self-cleavage no lower than 0.2: U60G U72G
MET
